Agonist activity (EC50), Cre-luc reporter assay overview
Target: human GLP-1R (human, UniProt P43220 24-463)
Assay: cell-based or functional assay
Square brackets hold non-standard residues; d marks the D form. Side chains are listed from the residue outwards. αMeF = C[C@](N)(Cc1ccccc1)C(=O)O; Iva = CC[C@](C)(N)C(=O)O; Oda = not defined here; Aib = CC(C)(N)C(=O)O
Numeric answer only, unit nM assumed.

H-Y[Aib]EGT[αMeF]TSDK([Gly-Gly-Gly-Gly-Oda])SK[Aib]LDKQRQ[Iva]EFVRHLLNK[Aib]TRQRY-NH2 (reading uncertain; also: printed as H-Tyr-Aib-Glu-Gly-Thr-αMePhe-Thr-Ser-Asp-Lys(-Gly-Gly-Gly-Gly-Oda)-Ser-Lys-Aib-Leu-Asp-Lys-Gln-Arg-Gln-Iva-Glu-Phe-Val-Arg-His-Leu-Leu-Asn-Lys-Aib-Thr-Arg-Gln-Arg-Tyr-NH2); 1.3

Turning now to a further record.
Enquiry: Please list Agonist activity (EC50), Cre-luc reporter assay recorded for the binder Me-Y[Aib]EGT[αMeF]TSDK([Gly-Gly-Gly-Gly-Oda])AI[Aib]LDKQRQ[Iva]EFVRHLLNK[Aib]TRQRY-NH2 (reading uncertain; also: printed as Me-Tyr-Aib-Glu-Gly-Thr-αMePhe-Thr-Ser-Asp-Lys(-Gly-Gly-Gly-Gly-Oda)-Ala-Ile-Aib-Leu-Asp-Lys-Gln-Arg-Gln-Iva-Glu-Phe-Val-Arg-His-Leu-Leu-Asn-Lys-Aib-Thr-Arg-Gln-Arg-Tyr-NH2)
Return: 4.4

Ref: patent US20190202883A1
